# assayed target: IL-13 (Homo sapiens (Human), UniProt P35225 35-146, limits assumed)
# Sequence (P35225 35-146 limits assumed): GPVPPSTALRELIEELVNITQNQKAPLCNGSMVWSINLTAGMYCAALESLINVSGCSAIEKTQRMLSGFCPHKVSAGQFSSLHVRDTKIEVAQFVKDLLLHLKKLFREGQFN
# protocol: Biacore
readout name: kon (M⁻¹ s⁻¹)
Numbers only; they are read as M⁻¹ s⁻¹.

Solved cases (4 shown):
Req: Bench note: what kon did M478 (antibody, V domains shown, anti-IL-13, human IgG1) VH: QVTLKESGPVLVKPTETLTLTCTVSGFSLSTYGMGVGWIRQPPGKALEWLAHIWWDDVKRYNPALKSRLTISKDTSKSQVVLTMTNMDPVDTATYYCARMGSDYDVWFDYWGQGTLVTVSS VL: EIVLTQSPATLSLSPGERATLSCRASKSISKYLAWYQQKPGQAPRLLIYSGSTLQSGIPARFSGSGSGTDFTLTISSLEPEDFAVYYCQQHNHGPYTFGQGTKLEIK show?
Resp: 1.19e+06

Req: Which value of kon has been reported for M449 (antibody, V domains shown, anti-IL-13, human IgG1) VH: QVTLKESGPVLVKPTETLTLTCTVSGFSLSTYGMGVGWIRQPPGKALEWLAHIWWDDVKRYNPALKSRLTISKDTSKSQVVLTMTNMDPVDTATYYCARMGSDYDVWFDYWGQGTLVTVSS VL: EIVLTQSPATLSLSPGERATLSCRASKSISKYLAWYQQKPGQAPRLLIYSGSTLQSGIPARFSGSGSGTDFTLTISSLEPEDFAVYYCQQHESGPYTFGQGTKLEIK in the records?
Resp: 1.02e+06

Req: Return reported kon; argument: M466 (antibody, V domains shown, anti-IL-13, human IgG1) VH: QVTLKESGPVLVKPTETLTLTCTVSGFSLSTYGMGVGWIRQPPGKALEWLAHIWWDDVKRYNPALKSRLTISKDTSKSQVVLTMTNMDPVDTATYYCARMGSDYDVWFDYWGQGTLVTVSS VL: EIVLTQSPATLSLSPGERATLSCRASKSISKYLAWYQQKPGQAPRLLIYSGSTLQSGIPARFSGSGSGTDFTLTISSLEPEDFAVYYCQQHDWSPYTFGQGTKLEIK
Resp: 970000

Req: Fill in: kon of M457 (antibody, V domains shown, anti-IL-13, human IgG1) VH: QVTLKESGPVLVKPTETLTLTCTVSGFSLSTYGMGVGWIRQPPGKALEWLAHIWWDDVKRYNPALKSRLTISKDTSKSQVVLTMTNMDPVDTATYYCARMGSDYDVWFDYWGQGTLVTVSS VL: EIVLTQSPATLSLSPGERATLSCRASKSISKYLAWYQQKPGQAPRLLIYSGSTLQSGIPARFSGSGSGTDFTLTISSLEPEDFAVYYCQQHDYAPYTFGQGTKLEIK is ___
Resp: 1.11e+06

More entries:
Req: Given the entry H2L6 HFS variant (antibody, V domains shown, IgG1; also called IL13-62) VH: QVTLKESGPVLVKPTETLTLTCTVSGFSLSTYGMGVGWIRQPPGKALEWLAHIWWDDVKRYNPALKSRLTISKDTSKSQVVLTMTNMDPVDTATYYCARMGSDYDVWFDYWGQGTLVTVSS VL: EIVLTQSPATLSLSPGERATLSCRASKSISKYLAWYQQKPGQAPRLLIYSGSTLQSGIPARFSGSGSGTDFTLTISSLEPEDFAVYYCQQHNEYPYTFGQGTKLEIK , report its measured kon.
Resp: 1.25e+06
